All values here come from ChEMBL document CHEMBL1153955.

- ASSAY SYSTEM: Human immunodeficiency virus type 1 reverse transcriptase (Human immunodeficiency virus 1, UniProt Q72547, Y181I)
- PROTOCOL: Inhibition of HIV1 reverse transcriptase p66/p51 Y181I mutant
- RECORDED CONDITIONS: read-out: IC50
For each of the compounds below, state its IC50.

Prompt: For the compound Cc1cc(C)cc(S(=O)(=O)c2c(C(=O)NC(C)C(N)=O)[nH]c3ccc([N+](=O)[O-])cc23)c1 (configuration not stated) , give its measured IC50 value.
Response: 4.21 µM

Prompt: For the compound Cc1cc(C)cc(S(=O)(=O)c2c(C(=O)NC(C)C(N)=O)[nH]c3ccc(Br)cc23)c1 (configuration not stated) , give its measured IC50 value.
Response: 1.81 µM

Prompt: For the compound Cc1cc(C)cc(S(=O)(=O)c2c(C(=O)NC(C)CS(N)(=O)=O)[nH]c3ccc([N+](=O)[O-])cc23)c1 (configuration not stated) , give its measured IC50 value.
Response: 26.2 µM

Prompt: For the compound Cc1cc(C)cc(S(=O)(=O)c2c(C(=O)NCC(N)=O)[nH]c3ccc(Cl)c(F)c23)c1 , give its measured IC50 value.
Response: 2.46 µM

Prompt: For the compound Cc1cc(C)cc(S(=O)(=O)c2c(C(=O)NC(C)CC(N)=O)[nH]c3ccc([N+](=O)[O-])cc23)c1 (configuration not stated) , give its measured IC50 value.
Response: 11.9 µM

Prompt: For the compound Cc1cc(C)cc(S(=O)(=O)c2c(C(=O)NCC(N)=O)[nH]c3ccc(Cl)cc23)c1 , give its measured IC50 value.
Response: 1.65 µM

Prompt: For the compound Cc1cc(C)cc(S(=O)(=O)c2c(C(=O)NC(C)C(N)=O)[nH]c3ccc(Cl)c(F)c23)c1 (configuration not stated) , give its measured IC50 value.
Response: 6.28 µM

----------
- Tested on: Influenza B virus
- PROTOCOL: Antiviral activity against influenza B virus in MDCK cells assessed as reduction of virus-induced cytopathicity by MTS method
- Format: functional, organism-based
pEC50: −log10 of the molar value.
OBSERVATION TYPE: pEC50

Prompt: For the molecule Cc1cc(C)cc(S(=O)(=O)c2c(C(=O)NCCS(N)(=O)=O)[nH]c3ccc(Cl)c(F)c23)c1 , give its measured pEC50 value.
Response: < 5.40

Prompt: For the molecule Cc1cc(C)cc(S(=O)(=O)c2c(C(=O)NC(C)CS(N)(=O)=O)[nH]c3ccc(Br)cc23)c1 (centres undefined) , give its measured pEC50 value.
Response: < 3.10

Prompt: For the molecule Cc1cc(C)cc(S(=O)(=O)c2c(C(N)=O)[nH]c3ccc(Cl)c(F)c23)c1 , give its measured pEC50 value.
Response: < 5.40

Prompt: For the molecule Cc1cc(C)cc(S(=O)(=O)c2c(C(=O)NCCS(N)(=O)=O)[nH]c3ccc([N+](=O)[O-])cc23)c1 , give its measured pEC50 value.
Response: < 5.40

----------
- ASSAY SYSTEM: Human immunodeficiency virus type 1 reverse transcriptase (Human immunodeficiency virus 1, UniProt Q72547, Y181I)
- PROTOCOL: Inhibition of HIV1 reverse transcriptase p66/p51 Y181I mutant
- RECORDED CONDITIONS: read-out: IC50
OBSERVATION TYPE: pIC50
In plain terms, pIC50 is the concentration in mol/L turned into minus its base-10 logarithm.

Prompt: For the compound Cc1cc(C)cc(S(=O)(=O)c2c(C(=O)NCCC(N)=O)[nH]c3ccc([N+](=O)[O-])cc23)c1 , give its measured pIC50 value.
Response: 5.26

Prompt: For the compound Cc1cc(C)cc(S(=O)(=O)c2c(C(=O)NCC(N)=O)[nH]c3ccc([N+](=O)[O-])cc23)c1 , give its measured pIC50 value.
Response: 5.54

Prompt: For the compound Cc1cc(C)cc(S(=O)(=O)c2c(C(=O)NC(C)CS(N)(=O)=O)[nH]c3ccc(Br)cc23)c1 (stereo not drawn) , give its measured pIC50 value.
Response: 5.07

Prompt: For the compound Cc1cc(C)cc(S(=O)(=O)c2c(C(=O)NCC(N)=O)[nH]c3ccc(Br)cc23)c1 , give its measured pIC50 value.
Response: 5.66

Prompt: For the compound Cc1cc(C)cc(S(=O)(=O)c2c(C(=O)NCCC(N)=O)[nH]c3ccc(Br)cc23)c1 , give its measured pIC50 value.
Response: 5.07
